B1: DLC1 (parent)
chain: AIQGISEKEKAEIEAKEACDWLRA

- Variants of: B1
- Assay Remarks: protein stability index of a GFP-peptide fusion (GPS, HEK-293T) (PSI 1-6); higher = more stable;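 further: lentivirally expressed fusions sorted by FACS into six bins by GFP to DsRed ratio, PSI derived from sequencing read proportions per bin multiplied by bin number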
- Study Conditions: c terminus: a fixed tail appended

[
  {
    "Variant Label": "S6M",
    "protein stability index": 4.04
  },
  {
    "Variant Label": "A24S",
    "protein stability index": 4.65
  },
  {
    "Variant Label": "K16D",
    "protein stability index": 5.1
  },
  {
    "Variant Label": "E17S",
    "protein stability index": 4.17
  },
  {
    "Variant Label": "E9G",
    "protein stability index": 4.23
  },
  {
    "Variant Label": "L22F",
    "protein stability index": 4.61
  },
  {
    "Variant Label": "S6A",
    "protein stability index": 4.31
  },
  {
    "Variant Label": "E9Q",
    "protein stability index": 4.14
  },
  {
    "Variant Label": "E9C",
    "protein stability index": 3.76
  },
  {
    "Variant Label": "A24E",
    "protein stability index": 5.03
  },
  {
    "Variant Label": "D20Y",
    "protein stability index": 3.97
  },
  {
    "Variant Label": "A18F",
    "protein stability index": 3.82
  }
]
